biological target: Nuclear receptor coactivator 2 (Homo sapiens); experiment: SRC2 coactivator transcriptional activity inhibitors, confirmation, cell-based, luminescence, HEK293, triplicate (AID 652008); conditions: HEK293 GAL4-SRC2 luciferase reporter, at 8.9 µM
The source made the active and inactive calls.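 How the source made its calls: active means mean inhibition above 46.5%, the solvent-only control mean plus 3 SD; inactive means the rest.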
I would appreciate it if you answered using one of these outcomes: active, inactive

>>> classassignment("Cc1ccc(C(C)C)c(OCc2ccc(C(=O)N/N=C/c3ccc(O)cc3O)cc2)c1")
"active"

input: Entry Cc1ccc(-n2c(C)c([N+](=O)[O-])c3ccc(O)c(CN(C)C)c32)cc1 : call = ?
output: inactive

input: // next record CCCC(=O)NC(c1ccccc1)c1ccc2cccnc2c1O (stereo not drawn)
output: inactive

input: // next record c1cc(-c2nnc3n2N=C(c2ccc4c(c2)OCO4)CS3)ccn1
output: inactive

input: // next record Cc1[nH]c2ccccc2c(=O)c1C(=O)/C=C/c1ccccc1
output: active

input: // next record COCCNC(=O)/C(C#N)=C/c1cc(C(C)C)c(OC)cc1C
output: inactive

input: // next record COc1cccc(C(=O)c2sc(NC(C)C)nc2N)c1
output: active
